From: patent US10793542B2

- TEST TARGET: Smo D473H mutant (Homo sapiens, UniProt Q99835, D473H)
- Sequence (Q99835 28-787 D473H): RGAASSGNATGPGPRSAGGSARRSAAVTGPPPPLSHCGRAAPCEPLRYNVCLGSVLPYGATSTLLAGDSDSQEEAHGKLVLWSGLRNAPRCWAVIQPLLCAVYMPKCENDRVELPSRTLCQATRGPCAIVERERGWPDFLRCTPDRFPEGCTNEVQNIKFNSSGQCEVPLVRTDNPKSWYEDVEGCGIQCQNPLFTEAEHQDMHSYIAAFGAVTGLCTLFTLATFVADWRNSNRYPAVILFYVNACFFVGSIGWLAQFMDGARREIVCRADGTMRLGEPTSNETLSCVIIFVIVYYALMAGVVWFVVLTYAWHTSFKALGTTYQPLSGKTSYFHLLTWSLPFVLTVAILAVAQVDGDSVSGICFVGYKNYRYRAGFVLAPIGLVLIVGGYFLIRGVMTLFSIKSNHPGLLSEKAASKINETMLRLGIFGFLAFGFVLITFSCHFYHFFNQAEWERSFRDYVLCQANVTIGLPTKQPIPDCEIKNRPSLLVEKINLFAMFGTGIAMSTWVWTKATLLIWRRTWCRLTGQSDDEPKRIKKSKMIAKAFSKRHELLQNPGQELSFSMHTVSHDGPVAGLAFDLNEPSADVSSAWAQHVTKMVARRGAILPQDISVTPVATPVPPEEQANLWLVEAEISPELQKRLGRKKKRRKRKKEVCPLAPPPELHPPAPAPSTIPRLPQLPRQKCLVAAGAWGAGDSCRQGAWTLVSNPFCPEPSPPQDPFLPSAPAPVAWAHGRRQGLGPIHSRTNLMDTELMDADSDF
- PROCEDURE DETAILS: Reporter assay of C3H10T1/2-Gli-Luc cells transfected with Smo D473H mutant, without SAG
- CONDITION INFO: C3H10T1/2 cells transfected with pLPCX-SMO-D473H, no SAG, 48 hr; read-out: Inhibition of C3H10T1/2-Gli-Luc-Smo-D473H [IC50
pIC50: −log10 of the molar value.
Assign pIC50 to each entry below.

- SMILES RECORD: "COc1cnc(Nc2ccc(C(=O)Nc3cc(CN4CCOCC4)ccc3C)cc2)nc1-c1ccc(OC(F)(F)F)cc1"
  pIC50: "> 7.00"
- SMILES RECORD: "CSc1cnc(Nc2ccc(C(=O)Nc3c(C)cccc3C)cc2)nc1-c1ccc(F)cc1"
  pIC50: "6.00 to 7.00"
- SMILES RECORD: "CSc1cnc(Nc2ccc(C(=O)Nc3cc(CN4CCOCC4)ccc3C)cc2F)nc1-c1cnn(C)c1"
  pIC50: "> 7.00"
- SMILES RECORD: "CNc1cnc(Nc2ccc(C(=O)Nc3cc(CN4CCOCC4)ccc3C)cc2)nc1-c1ccc(OC(F)(F)F)cc1"
  pIC50: "> 7.00"

Q: Hello, I am looking for reported pIC50 with Smo D473H mutant (Homo sapiens, UniProt Q99835, D473H) for COc1cccc(C)c1NC(=O)c1ccc(Nc2ncc(SC)c(-c3cccnc3F)n2)c(F)c1 . Could you help?
A: 6.00 to 7.00
